target_system: Alpha-2C adrenergic receptor (Homo sapiens) (UniProt P18825)
Sequence (P18825 whole entry, looked up): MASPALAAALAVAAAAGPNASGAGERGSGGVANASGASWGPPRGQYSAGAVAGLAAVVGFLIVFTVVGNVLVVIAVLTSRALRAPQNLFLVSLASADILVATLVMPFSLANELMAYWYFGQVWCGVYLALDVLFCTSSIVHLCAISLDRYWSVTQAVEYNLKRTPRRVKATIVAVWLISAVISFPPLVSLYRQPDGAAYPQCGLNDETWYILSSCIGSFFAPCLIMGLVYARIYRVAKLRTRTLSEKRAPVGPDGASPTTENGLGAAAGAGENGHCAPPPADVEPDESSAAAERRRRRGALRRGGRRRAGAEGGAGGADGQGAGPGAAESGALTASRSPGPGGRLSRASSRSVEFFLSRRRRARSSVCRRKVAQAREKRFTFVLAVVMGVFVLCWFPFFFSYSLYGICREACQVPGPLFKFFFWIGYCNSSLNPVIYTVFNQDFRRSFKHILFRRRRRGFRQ
assay_method_text: compounds altering alpha2C-coupled GIRK flux – cell-based, HEK293 alpha2C/GIRK1/2, thallium flux, primary screen (AID 624);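 note: slope of fluorescence ratio to pre-addition baseline per second over 15 to 24 s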
particulars: thallium flux BTC fluorescence, at 10 µM, actives lie on both sides
Response field class: string, computed from recorded slope by ranges low band (below 0.005), middle band (0.005 to below 0.006), high band (0.006 or more)

| compound | classification |
| --- | --- |
| CC(C)n1nc(C(=O)Nc2nc3ccc(S(C)(=O)=O)cc3s2)c2ccccc2c1=O | middle band |
| CC1(C)CC(=O)C2=C(C1)OC(N)=C(C#N)C2C1CC=CCC1 (stereo not drawn) | middle band |
| CSCCC(NC(=O)c1occc1C)C(=O)O (stereo not drawn) | low band |
| CCOc1ccc(NC(=O)CSc2nnc(Cc3cccn3C)n2-c2ccc(OC)cc2)cc1 | high band |
| Cc1csc(NC(=O)c2ccoc2C)n1 | low band |
| CCOCCCn1c(=NC(C)=O)c(C(=O)OCC)cc2c(=O)n3ccccc3nc21 | low band |
| O=C(Oc1ccc2ccc(OC(=O)N3CCOCC3)cc2c1)N1CCOCC1 | middle band |
| CCc1ccc(NC(=O)CSc2nnc(Cc3cccn3C)n2-c2ccc(OC)cc2)cc1 | middle band |
| CCC(C(=O)N1CCc2cc(OC)c(OC)cc2C1)c1ccccc1 (stereo not drawn) | low band |
| CCN(CC)S(=O)(=O)c1ccc2c(c1)nc(SCC(=O)NC1CC1)n2-c1ccccc1OC | middle band |
| Cn1c2c(c(=O)n(C)c1=O)C(CC(=O)Nc1ccccc1)C(=O)N2 (stereo not drawn) | high band |
| COc1ccc2cc(CN(CCO)C(=O)c3ccccc3F)c(=O)[nH]c2c1 | low band |
| COc1cccc(N2CCN(C(=O)C3C4C=CC5(CN(Cc6ccccc6Cl)C(=O)C35)O4)CC2)c1 (stereo not drawn) | low band |
| COc1ccc(CCNc2nc(N3CCOCC3)nc(N3CCOCC3)n2)cc1OC | low band |
| CCN(CC)c1ccc2cc(-c3nc4ccccc4[nH]3)c(=O)oc2c1 | low band |
| COc1ccccc1CNC(=O)C1CCCN(S(=O)(=O)c2cccc3cccnc23)C1 (stereo not drawn) | high band |
| COc1ccc2c(c1OC)C(=O)N(c1ccc3c(c1)CCC3)C2=O | middle band |
| Cc1ccccc1C(=O)NC1CCN(Cc2nnnn2CCc2ccccc2)CC1 | high band |
| CCc1cccc(NC(=O)C2CCCN(S(=O)(=O)c3c(C)[nH]c(=O)[nH]c3=O)C2)c1 (stereo not drawn) | low band |
| Cn1c2ccccc2c2ncn(CCCN3CCOCC3)c(=O)c21 | middle band |
| CCN(CC)S(=O)(=O)c1ccc2oc(SCc3ccc(F)cc3)nc2c1 | high band |
| Cc1ccc(OCCN2CCN(C(=O)CCC(=O)Nc3nnc(C)s3)CC2)cc1 | middle band |
| Cc1nnc(SCc2cc(=O)[nH]c(N3CCCCC3)n2)s1 | high band |
| Cc1cc(=O)oc2cc(OCC#N)ccc12 | high band |
| Cc1cnc(C(=O)Nc2nnc(C(C)C)s2)cn1 | high band |
| CCOC(=O)c1cnc(C(C)(C)C)[nH]c1=O | low band |
| Cc1c(C(=O)NC2CCCc3ccccc32)oc2ccc(S(=O)(=O)N3CCOCC3)cc12 (stereo not drawn) | high band |
| O=C(NCCCCNC(=O)c1cccnc1)c1cccnc1 | high band |
| CC1(C)NC(=O)N(CC(O)CN2CCCCC2)C1=O (stereo not drawn) | middle band |
